Provenance of the data: paper PMC7305997

# target under test: T1, Full length human CIB1 (calcium and integrin binding protein 1), N-terminal hexahistidine tag (human, UniProt Q99828 1-191)
# T1 sequence (looked up): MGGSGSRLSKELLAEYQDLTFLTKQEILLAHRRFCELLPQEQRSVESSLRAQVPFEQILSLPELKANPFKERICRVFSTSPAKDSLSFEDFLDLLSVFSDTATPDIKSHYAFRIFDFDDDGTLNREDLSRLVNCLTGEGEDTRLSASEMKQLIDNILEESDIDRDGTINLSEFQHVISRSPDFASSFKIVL
# measurement protocol: ITC
Ends that are not written are not given here.
Each entry below carries its recorded dH.

binder | unit spec | dH
EDGGSFWYGGMKALYG [UNC10245092 A5G] | kcal/mol | -7.7
EDGGSFWYGAMKALAG [UNC10245092 Y10A] | kcal/mol | -7.1
EDGGSFWYGAMKGLYG [UNC10245092 A8G] | kcal/mol | -13.8
EDGGSFAYGAMKALYG [UNC10245092 W2A] | kcal/mol | -5.9
Ac-FWYGAMKALYG [Acetyl short (Ac-FWYGAMKALYG)] | kcal/mol | -14
EDGGSFWYGAMKAAYG [UNC10245092 L9A] | kcal/mol | -8.8
EDGGSFWYGAAKALYG [UNC10245092 M6A] | kcal/mol | -8.1
EDGGSFWAGAMKALYG [UNC10245092 Y3A] | kcal/mol | -16.1
Ac-EDGGSFWYGAMKALYG [Acetyl long (Ac-EDGGSFWYGAMKALYG)] | kcal/mol | -16.1
EDGGSAWYGAMKALYG [UNC10245092 F1A] | kcal/mol | -9.8
H-EDGGSFWYGAMKALYG-NH2 [UNC10245092 (NH2-EDGGSFWYGAMKALYG-amide)] | kcal/mol | -14.4
